- System: rodent lifetime carcinogenesis bioassay, tumor incidence TD50
- TEST SUMMARY: carcinogenic potency in animals, long-term in vivo studies, CPDB compilation (AID 1745844)
- EXPERIMENTAL SETUP: mouse; strain B6C3F1; females; inhaled; site: pituitary gland; lesion: several types; types named in the paper; dosed 105 weeks; study length 105 weeks
RECORDED METRIC: TD50 (mg/kg/day)

[[record]]
molecule = "CCCCCC"
target_of_assay = "rodent lifetime carcinogenesis bioassay, tumor incidence TD50"
reading_unit = "mg/kg/day"
observed_value = 9460


----------
- System: rodent lifetime carcinogenesis bioassay, tumor incidence TD50
- TEST SUMMARY: carcinogenic potency in animals, long-term in vivo studies, CPDB compilation (AID 1745844)
- EXPERIMENTAL SETUP: rat; strain Osborne-Mendel; males; in feed; site: liver; lesion: hepatocellular adenoma + hepatocellular carcinoma + neoplastic nodule; dosed 80 weeks; study length 113 weeks
RECORDED METRIC: TD50 (mg/kg/day)

[[record]]
molecule = "Nc1c(Cl)c(Cl)nc(C(=O)O)c1Cl"
observed_value = 1320


----------
- System: rodent lifetime carcinogenesis bioassay, tumor incidence TD50
- TEST SUMMARY: carcinogenic potency in animals, long-term in vivo studies, CPDB compilation (AID 1745844)
- EXPERIMENTAL SETUP: mouse; strain Swiss CD-1; females; in drinking water; site: liver; lesion: several types; types named in the paper; dosed 34 weeks; study length 115 weeks
Calls of active or inactive are those of the source. How the calls were made is not given here.
RECORDED METRIC: TD50

[[record]]
molecule = "CNc1ncnc2c1ncn2[C@@H]1O[C@H](CO)[C@@H](O)[C@H]1O"
observed_value = "364 mg/kg/day (inactive)"


----------
- System: rodent lifetime carcinogenesis bioassay, tumor incidence TD50
- TEST SUMMARY: carcinogenic potency in animals, long-term in vivo studies, CPDB compilation (AID 1745844)
- EXPERIMENTAL SETUP: rat; strain Fischer 344; males; in feed; site: adrenal gland + kidney/pelvis + liver; lesion: pheochromocytoma + pheochromocytoma, malignant + transitional-cell papilloma + hepatocellular carcinoma + neoplastic nodule; dosed 104 weeks; study length 104 weeks
RECORDED METRIC: TD50 (mg/kg/day)

[[record]]
compound = "ClC1(Cl)C2(Cl)C3(Cl)C4(Cl)C(Cl)(Cl)C5(Cl)C3(Cl)C1(Cl)C5(Cl)C24Cl (stereo unspecified)"
observed_value = 0.669


----------
- Tested on: rodent lifetime carcinogenesis bioassay, tumor incidence TD50
- TEST SUMMARY: carcinogenic potency in animals, long-term in vivo studies, CPDB compilation (AID 1745844)
- EXPERIMENTAL SETUP: rat; strain Lewis; females; by gavage; site: kidney; lesion: adenocarcinoma; dosed 110 weeks; study length 110 weeks
RECORDED METRIC: TD50 (mg/kg/day)

[[record]]
molecule = "C[C@@H]1Cc2c(Cl)cc(C(=O)N[C@@H](Cc3ccccc3)C(=O)O)c(O)c2C(=O)O1"
target_of_assay = "rodent lifetime carcinogenesis bioassay, tumor incidence TD50"
reading_unit = "mg/kg/day"
observed_value = 2.56


----------
- Tested on: rodent lifetime carcinogenesis bioassay, tumor incidence TD50
- TEST SUMMARY: carcinogenic potency in animals, long-term in vivo studies, CPDB compilation (AID 1745844)
- EXPERIMENTAL SETUP: mouse; strain Swiss albino; males; by gavage; site: lung; lesion: several types; types named in the paper; dosed 52 weeks; study length 79 weeks
RECORDED METRIC: TD50

[[record]]
molecule = "CC=NN(C)C=O"
target_of_assay = "rodent lifetime carcinogenesis bioassay, tumor incidence TD50"
observed_value = "14.4 mg/kg/day"

